Data credit: PubChem BioAssay

Please respond with reported nuclear beta-catenin stimulation for every item in the list.
experiment: Wnt pathway potentiators raising nuclear beta-catenin – imaging, WNT3A-conditioned medium, mouse C2C12, NPC library, primary screen (AID 1117326); conditions: at 10 µM, stronger effect = higher value; also: reference of the scale not given here
Calls of active or inactive are those of the source. Rule as the data show it: active = nuclear beta-catenin stimulation mostly above about 4.2% (no sharp cut-off); inactive = mostly below about 10%.

A selection of reference data follows.
* CC(C)(C)NC(=O)[C@@H]1CN(Cc2cccnc2)CCN1C[C@@H](O)C[C@@H](Cc1ccccc1)C(=O)N[C@H]1c2ccccc2C[C@H]1O | 1.8% (inactive)
* CCN(CC)CCNC(=O)c1ccc(NC(C)=O)cc1 | -1.2% (inactive)

# per-item lookup of nuclear beta-catenin stimulation; items listed below
1. NC(=O)NC1NC(=O)NC1=O (stereo not drawn)
2. CCOC(=O)[C@H](CCc1ccccc1)N[C@@H](C)C(=O)N1[C@H](C(=O)O)C[C@@H]2CCC[C@@H]21
3. CCN(CC)CCOC(=O)C(c1ccccc1)C1CCCCC1 (stereo not drawn)
4. CC1CCc2cc(F)cc3c(=O)c(C(=O)O)cn1c23 (stereo not drawn)
5. O=C1c2c(O)cccc2Cc2cccc(O)c21
6. CCCc1c(OCCCCc2nn[nH]n2)ccc(C(C)=O)c1O
7. C[n+]1ccccc1/C=N/O
8. Cc1cc(C(C)(C)C)cc(C)c1CC1=NCCN1

Reply:
1: -0.1% (inactive); 2: 0.8% (inactive); 3: 5% (inactive); 4: 3.1% (inactive); 5: -3.3% (inactive); 6: 0.3% (inactive); 7: -0.7% (inactive); 8: 0.1% (inactive)
